Reported IC50 values are given for each entry in this list.
- Tested on: AsPC-1 pancreatic cancer (KRAS G12D mutation) cells
- ASSAY_SUMMARY: Cell proliferation assay (CellTiter-Glo cell viability)
- Assay type: cell-based
- MEASUREMENT_PARAMETERS: Homo sapiens, ASPC1, 72 h, AsPC-1 cells, CellTiter-Glo 2.0
READOUT_LABEL: IC50

{"columns": ["COMPOUND", "READOUT_LABEL", "RECORDED_MEASUREMENT"],
 "data": [
  ["N#Cc1c(N)sc2c(F)ccc(-c3c(Cl)c4c5c(nc(OC[C@@]67CCCN6C[C@H](F)C7)nc5c3F)N3CCCOC[C@H]3CO4)c12 (single isomer, unassigned) [Example 12b]", "IC50", "< 2 µM"],
  ["N#Cc1c(N)sc2c(F)ccc(-c3c(Cl)c4c5c(nc(OC[C@@]67CCCN6C[C@H](F)C7)nc5c3F)N3CCCCC[C@@H]3CO4)c12 [Example 11a]", "IC50", "2 to 20 µM"],
  ["CCc1c(F)ccc2cc(O)cc(-c3nc4c5c(nc(OC[C@@]67CCCN6C[C@H](F)C7)nc5c3F)N3CCNC[C@@H]3CCO4)c12", "IC50", "> 20 µM"],
  ["Nc1nc2c(-c3c(Cl)c4c5c(nc(OC[C@@]67CCCN6C[C@H](F)C7)nc5c3F)N3CCCCCC3CO4)ccc(F)c2s1 (some centres unmarked)", "IC50", "< 2 µM"],
  ["C#Cc1c(F)ccc2cc(O)cc(-c3nc4c5c(nc(OC[C@@]67CCCN6C[C@H](F)C7)nc5c3F)N3CCNC[C@@H]3CCO4)c12", "IC50", "> 20 µM"]
]}
